# test_system: T1, EsCas13d, nuclease-dead (Eubacterium siraeum, UniProt B0MS50, R295A;H300A;R849A;H854A)
# T1 sequence: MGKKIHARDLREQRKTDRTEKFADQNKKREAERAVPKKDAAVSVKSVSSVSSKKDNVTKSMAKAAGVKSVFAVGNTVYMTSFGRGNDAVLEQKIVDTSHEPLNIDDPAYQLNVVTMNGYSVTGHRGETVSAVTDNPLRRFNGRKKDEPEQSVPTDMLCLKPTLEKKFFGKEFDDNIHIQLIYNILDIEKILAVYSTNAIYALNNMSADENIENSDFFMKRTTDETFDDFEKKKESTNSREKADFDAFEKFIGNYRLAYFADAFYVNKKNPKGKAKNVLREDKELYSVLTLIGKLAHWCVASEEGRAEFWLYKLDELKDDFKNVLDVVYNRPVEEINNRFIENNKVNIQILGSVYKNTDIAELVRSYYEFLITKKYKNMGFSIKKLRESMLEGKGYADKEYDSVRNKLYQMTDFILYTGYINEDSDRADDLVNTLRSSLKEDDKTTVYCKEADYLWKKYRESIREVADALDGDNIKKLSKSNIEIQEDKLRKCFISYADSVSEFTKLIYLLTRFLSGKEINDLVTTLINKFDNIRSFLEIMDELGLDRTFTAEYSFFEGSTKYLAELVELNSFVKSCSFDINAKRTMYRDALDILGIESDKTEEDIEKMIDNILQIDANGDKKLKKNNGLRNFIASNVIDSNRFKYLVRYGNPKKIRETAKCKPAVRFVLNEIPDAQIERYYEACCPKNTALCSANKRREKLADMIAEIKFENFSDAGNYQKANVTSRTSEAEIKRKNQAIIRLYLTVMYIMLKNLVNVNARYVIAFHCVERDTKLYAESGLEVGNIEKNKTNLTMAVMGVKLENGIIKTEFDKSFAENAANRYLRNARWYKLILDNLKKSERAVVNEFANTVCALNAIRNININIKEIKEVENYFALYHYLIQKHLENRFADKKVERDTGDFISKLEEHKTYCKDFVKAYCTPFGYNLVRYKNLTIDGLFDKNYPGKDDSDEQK
# test_name: crRNA (strand 1, pre-loaded); Mg2+; 40 mM Tris-HCl pH 7.5, 150 mM NaCl, 6 mM MgCl2, 1 mM DTT, 0.1% Tween-20, 0.2 mg/ml BSA; 25 C; 10 min per concentration, then washed
# condition_label: tags: His6-TwinStrep-SUMO cleaved; N-terminal SNAP kept (SNAP-Surface 488); label: 3' end held by stalled T7 RNA polymerase
Documented Kd across a set of binders
Kindly answer with a numeric value in nM, unit omitted.

Below, each entry is followed by its recorded Kd result.
binder="target 3 C16U (mixed) RNA 1: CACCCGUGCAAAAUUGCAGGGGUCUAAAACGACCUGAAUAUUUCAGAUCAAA RNA 2: GGGAAUGGAUCCACAUCUACGAAUUCGUUUUUGAUUUGAAAUAUUCAGGUCUGCAGAUCGGAAGAGCACACGU" observable=Kd readout_number=82.5
binder="target 1 insG 3' of 22,insA 3' of 13 (mixed) RNA 1: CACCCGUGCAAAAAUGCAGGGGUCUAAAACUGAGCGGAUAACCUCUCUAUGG RNA 2: GGGAAUGGAUCCACAUCUACGAAUUCGUACGCAUAGAGAGAGUUAUCCGCUCACCGAGAUCGGAAGAGCACACGU" observable=Kd readout_number=11.5
binder="target 1 C2A,G15U (mixed) RNA 1: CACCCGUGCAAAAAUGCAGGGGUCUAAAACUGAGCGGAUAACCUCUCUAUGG RNA 2: GGGAAUGGAUCCACAUCUACGAAUUCGUACCAUAGAUAGGUUAUCCGCUAACCGAGAUCGGAAGAGCACACGU" observable=Kd readout_number=29

Consider the record given below.
Name the recorded Kd for target 2 MT 5'PFS AAU 3'PFS CUU (mixed) RNA 1: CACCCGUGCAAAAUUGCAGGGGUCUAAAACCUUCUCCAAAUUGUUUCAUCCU RNA 2: GGGAAUGGAUCCACAUCUACGAAUUCAAUAGGAUGAAACAAUUUGGAGAAGCUUAGAUCGGAAGAGCACACGU .
9.4
